experiment: Toxicity to infected host macrophages, resazurin reduction; type: cell-based, murine (C57BL/6 mice); settings: male, C57BL/6, mouse; BMM infected with M. avium 2447 SmT, 5 days at 37 °C and 7% CO2, resazurin; 4PL interpolation; parentheses = 95% confidence interval; read-out: LC50
recorded.metric: CC50 at 5 days

Please review the following examples before continuing.
// CC(C)/N=c1\cc2n(-c3ccc(Cl)cc3)c3ccccc3nc-2cc1Nc1ccc(Cl)cc1 [Clf, clofazimine] : CC50 at 5 days value = 4.1 µM

CC50 at 5 days for CC1COc2c(N3CCN(C)CC3)c(F)cc3c(=O)c(C(=O)O)cn1c23 (stereo not drawn) [Of, ofloxacin] is > 100 µM

Could you now look at the following compound, please?
The compound listed as CCn1cc(C(=O)O)c(=O)c2cc(F)c(N3CCNCC3)cc21 [Nf, norfloxacin] has a reported CC50 at 5 days of > 100 µM
